- target-of-assay: IKKε (Homo sapiens, UniProt Q14164)
- Construct: His-tag; made in house; host or cells: Sf9 insect cells
- Sequence (Q14164 whole entry): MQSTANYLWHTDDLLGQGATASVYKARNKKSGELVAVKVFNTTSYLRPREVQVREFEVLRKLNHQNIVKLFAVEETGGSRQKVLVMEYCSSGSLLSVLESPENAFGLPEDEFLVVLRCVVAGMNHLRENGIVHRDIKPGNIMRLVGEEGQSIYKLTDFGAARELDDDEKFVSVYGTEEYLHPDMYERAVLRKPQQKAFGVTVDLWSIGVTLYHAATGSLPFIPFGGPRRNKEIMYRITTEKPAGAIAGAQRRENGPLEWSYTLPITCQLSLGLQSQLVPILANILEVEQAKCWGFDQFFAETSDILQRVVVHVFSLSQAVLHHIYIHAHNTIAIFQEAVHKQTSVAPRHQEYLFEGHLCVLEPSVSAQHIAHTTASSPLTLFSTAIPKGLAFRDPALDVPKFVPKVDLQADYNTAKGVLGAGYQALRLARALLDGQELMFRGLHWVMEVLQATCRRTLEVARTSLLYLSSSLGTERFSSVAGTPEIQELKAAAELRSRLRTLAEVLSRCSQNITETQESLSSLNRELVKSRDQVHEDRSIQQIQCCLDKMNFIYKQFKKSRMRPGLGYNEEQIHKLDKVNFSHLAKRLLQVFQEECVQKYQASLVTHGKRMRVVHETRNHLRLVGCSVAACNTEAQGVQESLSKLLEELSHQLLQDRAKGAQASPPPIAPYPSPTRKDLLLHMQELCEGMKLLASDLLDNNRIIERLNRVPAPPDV
- measurement-protocol: In-vitro IKKε kinase assay ([γ33]ATP filter-plate)
- Format: biochemical
- experimental-setup: text bins; read-out: IC50 for inhibition of the kinase activity of IKKε
experimental-readout: IC50

compound	result
N#Cc1cc(-c2ccnc(Nc3ccc(CS(=O)(=O)N4CCN(CCO)CC4)cc3)n2)ccc1OC1CCOCC1 [compound 406]	< 5 nM
CC(C)COc1ccc(-c2ccnc(Nc3cccc(CS(=O)(=O)NCCO)c3)n2)cc1C#N [compound 534]	< 5 nM
CCC(C)C(=O)Nc1ccc(-c2ccnc(Nc3ccc(N4CCOCC4)cc3)n2)cc1C#N (centres unmarked) [compound 417]	5 to 50 nM
COc1cc(NC(=O)c2ccccn2)cc(Nc2nccc(-c3ccc(OC)c(C#N)c3)n2)c1 [compound 365]	50 to 500 nM

Provide each entry's IC50 from the list below.
1. N#Cc1cc(-c2ccnc(Nc3cccc(-c4cccnc4)c3)n2)ccc1OC1CCOCC1 [compound 549]
2. CN(C)S(=O)(=O)Cc1cccc(Nc2nccc(-c3ccc(OC4CCOCC4)c(C#N)c3)n2)c1 [compound 601]
3. N#Cc1cc(-c2ccnc(Nc3ccc(N4CCOCC4)cc3)n2)ccc1NC(=O)C(F)(F)C(F)F [compound 441]
4. COc1ccc(-c2ccnc(Nc3cc(CN(C)C)c(OC)c(OC)c3)n2)cc1C#N [Example 174]

1. < 5 nM
2. < 5 nM
3. 5 to 50 nM
4. 5 to 50 nM
